tested on: LoVo; assay: SRB colorimetric assay of cell growth and viability, LoVo; type: cell-based, human; details: 48 hours exposure, SRB
Where a SMILES comes first, the peptide text is derived from it. Bridges are numbered along the chain shown (N, C = ends). [ ]: non-standard residue; d: D form. The star is where a group is joined. d(aIle) = CC[C@H](C)[C@@H](N)C(=O)O; d(aThr) = C[C@@H](O)[C@@H](N)C(=O)O; Hexanoyl(5-Me) = CC(C)CCCC(=O)*; Orn = NCCC[C@H](N)C(=O)O; Dhb = C/C=C(\N)C(=O)O; Dha = C=C(N)C(=O)O
// reported TGI LOVO per item
Your answer should be a plain number; it is taken to be in Molar.

{"compound": "C=C1NC(=O)[C@H](Cc2ccccc2)NC(=O)[C@@H](C(C)C)NC(=O)[C@@H]([C@@H](C)CC)NC(=O)[C@H](NC(=O)[C@H](NC(=O)[C@H](CCCN)NC(=O)[C@H]2CCCN2C(=O)[C@H](NC(=O)[C@@H](NC(=O)[C@@H](NC(=O)[C@H](NC(=O)CCCC(C)C)C(C)C)[C@@H](C)O)C(C)C)C(C)C)[C@@H](C)CC)[C@@H](C)OC(=O)[C@H](C(C)C)NC1=O [Compound 67, [Dha^2]-KF] ({Hexanoyl(5-Me)}-[dV]TV[dV][dP][Orn][d(aIle)][d(aThr)][d(aIle)][dV]F[Dha]V; ester 8-C)", "TGI LOVO, Molar": "3.40E−07"}

compound CC[C@H](C)[C@@H](NC(=O)[C@H](CCCN)NC(=O)[C@H]1CCCN1C(=O)[C@H](NC(=O)[C@@H](NC(=O)[C@@H](NC(=O)[C@H](NC(=O)CCCC(C)C)C(C)C)[C@@H](C)O)C(C)C)C(C)C)C(=O)N[C@H]1C(=O)N[C@H]([C@@H](C)CC)C(=O)N[C@H](C(C)C)C(=O)N[C@@H](Cc2ccccc2)C(=O)NCC(=O)N[C@@H](C(C)C)C(=O)O[C@@H]1C [Compound 65, [Gly^2]-KF] ({Hexanoyl(5-Me)}-[dV]TV[dV][dP][Orn][d(aIle)][d(aThr)][d(aIle)][dV]FGV; ester 8-C) , TGI LOVO observed: 1.98E−06

Form: compound = C/C=C1\NC(=O)[C@H](Cc2ccccc2)NC(=O)[C@@H](C(C)C)NC(=O)[C@@H]([C@@H](C)CC)NC(=O)[C@H](NC(=O)[C@H](NC(=O)[C@H](CCCC[N+](C)(C)C)NC(=O)[C@H]2CCCN2C(=O)[C@H](NC(=O)[C@@H](NC(=O)[C@@H](NC(=O)[C@H](NC(=O)CC[C@@H](C)CC)C(C)C)[C@@H](C)O)C(C)C)C(C)C)[C@@H](C)CC)[C@@H](C)OC(=O)[C@H](C(C)C)NC1=O [Compound 93, [N^ε(Me)3-Lys^8, (4S)-MeHex^14]-KF] ; TGI LOVO = 2.08E−07

get_value(item= C/C=C1\NC(=O)[C@H](Cc2c[nH]c3ccccc23)NC(=O)[C@@H](C(C)C)NC(=O)[C@@H]([C@@H](C)CC)NC(=O)[C@H](NC(=O)[C@H](NC(=O)[C@H](CCCN)NC(=O)[C@H]2CCCN2C(=O)[C@H](NC(=O)[C@@H](NC(=O)[C@@H](NC(=O)[C@H](NC(=O)CCCC(C)C)C(C)C)[C@@H](C)O)C(C)C)C(C)C)[C@@H](C)CC)[C@@H](C)OC(=O)[C@H](C(C)C)NC1=O [Compound 68, [Trp^3]-KF] ({Hexanoyl(5-Me)}-[dV]TV[dV][dP][Orn][d(aIle)][d(aThr)][d(aIle)][dV]W[Dhb]V; ester 8-C) , readout=TGI LOVO) returns 9.49E−07

====

tested on: PANC-1; experiment: SRB colorimetric assay of cell growth and viability, PANC-1; type: cell-based, human; settings: 48 hours exposure
Where a SMILES comes first, the peptide text is derived from it. Bridges are numbered along the chain shown (N, C = ends). [ ]: non-standard residue; d: D form. The star is where a group is joined. d(aIle) = CC[C@H](C)[C@@H](N)C(=O)O; d(aThr) = C[C@@H](O)[C@@H](N)C(=O)O; Hexanoyl(5-Me) = CC(C)CCCC(=O)*; Orn = NCCC[C@H](N)C(=O)O; Dhb = C/C=C(\N)C(=O)O
Reported TGI PANC-1 values are given for each entry in this list.
Report as a plain number; the unit Molar is understood.

Sample records with TGI PANC-1:
{"compound": "C/C=C1\\NC(=O)[C@H](Cc2ccccc2)NC(=O)[C@@H](C(C)C)NC(=O)[C@@H]([C@@H](C)CC)NC(=O)[C@H](NC(=O)[C@H](NC(=O)[C@H](CCCN)NC(=O)[C@H]2CCCN2C(=O)[C@H](NC(=O)[C@@H](NC(=O)[C@@H](NC(=O)[C@H](NC(=O)CCCCCCCCCC)C(C)C)[C@@H](C)O)C(C)C)C(C)C)[C@@H](C)CC)[C@@H](C)OC(=O)[C@H](C(C)C)NC1=O [Compound 15, [Und^14]-KF]", "unit": "Molar", "TGI PANC-1": "2.28E−06"}
{"compound": "C/C=C1\\NC(=O)[C@H](Cc2ccccc2)NC(=O)[C@@H](C(C)C)NC(=O)[C@@H]([C@@H](C)CC)NC(=O)[C@H](NC(=O)[C@H](NC(=O)[C@H](CCCN)NC(=O)[C@H]2CCCN2C(=O)[C@H](NC(=O)[C@@H](NC(=O)[C@@H](NC(=O)[C@H](NC(=O)CCCC(C)C)C(C)C)C(C)C)C(C)C)C(C)C)[C@@H](C)CC)[C@@H](C)OC(=O)[C@H](C(C)C)NC1=O [Compound 6, [Val^12]-KF] ({Hexanoyl(5-Me)}-[dV]VV[dV][dP][Orn][d(aIle)][d(aThr)][d(aIle)][dV]F[Dhb]V; ester 8-C)", "unit": "Molar", "TGI PANC-1": "1.96E−06"}
{"compound": "C/C=C1\\NC(=O)[C@H](Cc2ccccc2)NC(=O)[C@@H](C(C)C)NC(=O)[C@@H]([C@@H](C)CC)NC(=O)[C@H](NC(=O)[C@H](NC(=O)[C@H](CCCN)NC(=O)[C@H]2CCCN2C(=O)[C@H](NC(=O)[C@@H](NC(=O)[C@@H](NC(=O)[C@H](NC(=O)CCCCCCC)C(C)C)[C@@H](C)O)C(C)C)C(C)C)[C@@H](C)CC)[C@@H](C)OC(=O)[C@H](C(C)C)NC1=O [Compound 18, [Oct^14]-KF]", "unit": "Molar", "TGI PANC-1": "3.35E−06"}
{"compound": "C/C=C1\\NC(=O)[C@H](Cc2ccccc2)NC(=O)[C@@H](C(C)C)NC(=O)[C@@H]([C@@H](C)CC)NC(=O)[C@H](NC(=O)[C@H](NC(=O)[C@H](CCC(=O)O)NC(=O)[C@H]2CCCN2C(=O)[C@H](NC(=O)[C@@H](NC(=O)[C@@H](NC(=O)[C@H](NC(=O)CCCC(C)C)C(C)C)[C@@H](C)O)C(C)C)C(C)C)[C@@H](C)CC)[C@@H](C)OC(=O)[C@H](C(C)C)NC1=O [Compound 4, [Glu^8]-KF] ({Hexanoyl(5-Me)}-[dV]TV[dV][dP]E[d(aIle)][d(aThr)][d(aIle)][dV]F[Dhb]V; ester 8-C)", "unit": "Molar", "TGI PANC-1": "3.46E−06"}

We now examine a further compound.
# TGI PANC-1 (compound: C/C=C1\NC(=O)[C@H](Cc2ccccc2)NC(=O)[C@@H](C(C)C)NC(=O)[C@@H](C(C)C)NC(=O)[C@H](NC(=O)[C@H](NC(=O)[C@H](CCCN)NC(=O)[C@H]2CCCN2C(=O)[C@H](NC(=O)[C@@H](NC(=O)[C@@H](NC(=O)[C@H](NC(=O)CCCC(C)C)C(C)C)[C@@H](C)O)C(C)C)C(C)C)C(C)C)[C@@H](C)OC(=O)[C@H](C(C)C)NC1=O [Compound 12, [D-Val^5, D-Val^7]-KF] ({Hexanoyl(5-Me)}-[dV]TV[dV][dP][Orn][dV][d(aThr)][dV][dV]F[Dhb]V; ester 8-C) ) is 6.90E−06

====

system: LNCaP; test: SRB colorimetric assay of cell growth and viability, LNCaP; assay type: cell-based, human; conditions: 48 hours exposure, SRB
Where a SMILES comes first, the peptide text is derived from it. Bridges are numbered along the chain shown (N, C = ends). [ ]: non-standard residue; d: D form. The star is where a group is joined. d(aIle) = CC[C@H](C)[C@@H](N)C(=O)O; d(aThr) = C[C@@H](O)[C@@H](N)C(=O)O; hCha = N[C@@H](CCC1CCCCC1)C(=O)O; Hexanoyl(5-Me) = CC(C)CCCC(=O)*; Orn = NCCC[C@H](N)C(=O)O; Dhb = C/C=C(\N)C(=O)O
# TGI LN-caP listing for each entry below
Answer format: numeric, Molar implied, no suffix.

{"compound": "C/C=C1\\NC(=O)[C@H](Cc2ccccc2)NC(=O)[C@@H](C(C)C)NC(=O)[C@@H]([C@@H](C)CC)NC(=O)[C@H](NC(=O)[C@H](NC(=O)[C@H](CCCN)NC(=O)[C@H]2CCCN2C(=O)[C@H](NC(=O)[C@@H](NC(=O)[C@@H](NC(=O)[C@@H](C(C)C)N(CCCCCCC)CCCCCCC)[C@@H](C)O)C(C)C)C(C)C)[C@@H](C)CC)[C@@H](C)OC(=O)[C@H](C(C)C)NC1=O", "readout": "TGI LN-caP", "unit": "Molar", "endpoint.value": "6.40E−06"}

Pending compound:
Sample C/C=C1\NC(=O)[C@H](CCC2CCCCC2)NC(=O)[C@@H](C(C)C)NC(=O)[C@@H]([C@@H](C)CC)NC(=O)[C@H](NC(=O)[C@H](NC(=O)[C@H](CCCN)NC(=O)[C@H]2CCCN2C(=O)[C@H](NC(=O)[C@@H](NC(=O)[C@@H](NC(=O)[C@H](NC(=O)CCCC(C)C)C(C)C)[C@@H](C)O)C(C)C)C(C)C)[C@@H](C)CC)[C@@H](C)OC(=O)[C@H](C(C)C)NC1=O [Compound 63] ({Hexanoyl(5-Me)}-[dV]TV[dV][dP][Orn][d(aIle)][d(aThr)][d(aIle)][dV][hCha][Dhb]V; ester 8-C) ; TGI LN-caP observed: 1.21E−06

Where do the numbers come from? From patent US20070117743A1.
